Where these numbers come from: patent US20170037124A1

Measured 500 nM hAngPTL4 peptide Bound (RU), listed per entry.
targetOfAssay: T1, peptide from the N-terminal coiled-coil region of human ANGPTL4 (hANGPTL4 peptide, SEQ ID NO: 339) (human)
T1 peptide: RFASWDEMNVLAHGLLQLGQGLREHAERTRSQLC
assayNotes: SPR, captured mAb, 500 nM peptide, 25C
outcomeMeasure: 500 nM hAngPTL4 peptide Bound (RU)

# binder, testValue
rows = [
    ("H4H15334P (antibody, human IgG4, V domains shown, H4H prefix: human IgG4 Fc) VH: QVQLQESGPGLVKPSQTLSLTCTVSGGSINSGGYYWNWIRQHPGKGLEWIGYIYYSGSTYFNPSLKSRVTISIDTSKNQFSLKLSSVTAADTAVYYCAREGIYAFDYWGQGTLVTVSS VL: DIQMTQSPSSLSASVGDRVTITCRASQGIRNDLGWYQQKPGKAPKRLIYSASSLQSGVPSRFGGSGSGTEFTLTISSLQPEDFATYYCLQHNSYPWTFGQGTKVEIK", 1),
    ("H4H15330P (antibody, human IgG4, V domains shown, H4H prefix: human IgG4 Fc) VH: QVQLVESGGGLVKPGGSLRLSCAASGFTFSDYYMSWIRQAPGKGLEWISHISGSGRTTHYADSMKGRFTISRDNAKNSLYLQMNSLRAEDTAVYYCVREGGFNWNYEGTFDIWGQGTMVTVSS VL: DIVMTQTPLSSPVTLGQPASISCRSSQSLLHSDQNTYLSWLHQRPGQPPRLLIYKISNRFSGVPDRFSGSGAGTDFTLKISRVEAEDVGIYYCMQGTQFPLTFGGGTKVEIK", 0),
    ("H4H15314P2 (antibody, human IgG4, V domains shown, H4H prefix: human IgG4 Fc) VH: QVQLVQSGAEVKKPGASVKVSCKASGYTFTSYDINWVRQATGQGLEWMGWMNPNGDNTGYAQKFQGRVTMTGDTSISTAYMELSSLRSEDTAVYYCAREGIWGFDPWGQGTLVTVSS VL: DIQMTQSPSSLSASVGDRVTITCRASQDIRNDLGWYQQKPGKAPKRLIYAASSLQSGVPSRFSGSGSGTEFTLTISSLQPEDFATFYCLQHNTFPRTFGQGTKVEIK", 1),
]
